Data origin, for the record: patent US20110201629A1

- target.entity: CRF-1 (UniProt P34998)
- assay: CRF-1 receptor antagonism, HTRF cAMP assay in CHO cells
- Format: cell-based, human
- protocol.conditions: Biological data Table 1; inhibition of CRF induced cAMP response in CHO cells, EC50 concentration of CRF
pIC50: −log10 of the molar value.
readout.name: pIC50

item.smiles | pIC50
Cc1ncc(C(F)(F)F)cc1C(=O)N[C@H]1CC[C@H](CN2C(=O)C(C)(C)c3ccccc32)CC1 | 6.21

(A) CCn1c(=O)n(C[C@H]2CC[C@H](NC(=O)c3cc(Cl)cnc3C)CC2)c2ccncc21
(B) O=C(N[C@H]1CC[C@H](Cn2c(=O)[nH]c3ccccc32)CC1)c1cc(C(F)(F)F)ccc1Cl
Q) Consider entries A and B . Which has the numerically lower pIC50? Refer to your chosen item by its label in the answer.
A) A

(P) O=C(N[C@H]1CC[C@H](CN2C(=O)C3(CC3)c3cc(F)ccc32)CC1)c1cc(C(F)(F)F)ccc1Cl
(Q) C[C@@]1(F)C(=O)N(C[C@H]2CC[C@H](NC(=O)c3cc(C(F)(F)F)ccc3Cl)CC2)c2ccccc21
Q) Consider entries P and Q . Which has the numerically lower pIC50? Refer to your chosen item by its label in the answer.
A) Q
(Q: 6.70, P: 8.05)
